inhibition values, listed per item
# STUDY_SYSTEM: Alpha amylase (Homo sapiens)
# EXPERIMENT: Inhibition of human alpha-amylase at 50 ug/ml using starch as substrate preincubated for 30 mins by 3,5-dinitrosalicylic acid color reagent based assay relative to control

COMPOUND | VALUE_UNIT | inhibition
Cc1ccc(/N=C2/NC(=O)/C(=C/c3cn(-c4ccccc4)nc3-c3ccc([N+](=O)[O-])cc3)S2)cc1 | % | 65.1
Cc1ccc(/N=C2/NC(=O)/C(=C/c3cn(-c4ccccc4)nc3-c3ccc(F)cc3)S2)cc1 | % | 77.1
Cc1ccc(/N=C2/NC(=O)/C(=C/c3cn(-c4ccccc4)nc3-c3ccc(Br)cc3)S2)cc1 | % | 52.1
COc1ccc(-c2nn(-c3ccccc3)cc2/C=C2\S/C(=N\c3ccc(C)cc3)NC2=O)cc1 | % | 75.9
Cc1ccc(/N=C2/NC(=O)/C(=C/c3cn(-c4ccccc4)nc3-c3ccccc3)S2)cc1 | % | 48.1
Cc1ccc(/N=C2/NC(=O)/C(=C/c3cn(-c4ccccc4)nc3-c3ccc(C)cc3)S2)cc1 | % | 79.2
Cc1ccc(/N=C2/NC(=O)/C(=C/c3cn(-c4ccccc4)nc3-c3ccc(Cl)cc3)S2)cc1 | % | 50.9
C[C@H]1O[C@H](O[C@H]2[C@H](O)[C@@H](O)[C@@H](O[C@H]3[C@H](O)[C@@H](O)C(O)O[C@@H]3CO)O[C@@H]2CO)[C@H](O)[C@@H](O)[C@@H]1N[C@H]1C=C(CO)[C@@H](O)[C@H](O)[C@H]1O (stereo partly drawn) | % | 48.6

###

# STUDY_SYSTEM: Alpha amylase (Homo sapiens) (UniProt P0DUB6)
# Sequence (P0DUB6 whole entry, looked up): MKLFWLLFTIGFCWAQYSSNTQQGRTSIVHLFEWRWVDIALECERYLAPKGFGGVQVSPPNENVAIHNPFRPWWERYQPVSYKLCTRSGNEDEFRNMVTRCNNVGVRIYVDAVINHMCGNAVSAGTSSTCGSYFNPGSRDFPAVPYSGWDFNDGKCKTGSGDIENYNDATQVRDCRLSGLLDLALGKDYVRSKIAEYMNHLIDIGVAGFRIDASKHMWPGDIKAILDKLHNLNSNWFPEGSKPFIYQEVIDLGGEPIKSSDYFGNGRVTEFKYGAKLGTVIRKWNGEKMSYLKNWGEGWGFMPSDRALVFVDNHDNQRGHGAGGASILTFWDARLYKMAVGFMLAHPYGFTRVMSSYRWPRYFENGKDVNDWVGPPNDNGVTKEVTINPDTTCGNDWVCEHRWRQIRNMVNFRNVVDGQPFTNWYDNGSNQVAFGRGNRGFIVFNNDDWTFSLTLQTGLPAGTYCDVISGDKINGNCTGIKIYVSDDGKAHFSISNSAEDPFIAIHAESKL
# EXPERIMENT: Inhibition of human alpha-amylase at 200 ug/ml using starch as substrate preincubated for 30 mins by 3,5-dinitrosalicylic acid color reagent based assay relative to control
inhibition for assorted compounds

COMPOUND | STUDY_SYSTEM | VALUE_UNIT | inhibition
Cc1ccc(/N=C2/NC(=O)/C(=C/c3cn(-c4ccccc4)nc3-c3ccc(F)cc3)S2)cc1 | Alpha amylase (Homo sapiens) (UniProt P0DUB6) | % | 78
C[C@H]1O[C@H](O[C@H]2[C@H](O)[C@@H](O)[C@@H](O[C@H]3[C@H](O)[C@@H](O)C(O)O[C@@H]3CO)O[C@@H]2CO)[C@H](O)[C@@H](O)[C@@H]1N[C@H]1C=C(CO)[C@@H](O)[C@H](O)[C@H]1O (stereo partly drawn) | Alpha amylase (Homo sapiens) (UniProt P0DUB6) | % | 63.7
Cc1ccc(/N=C2/NC(=O)/C(=C/c3cn(-c4ccccc4)nc3-c3ccc(Br)cc3)S2)cc1 | Alpha amylase (Homo sapiens) (UniProt P0DUB6) | % | 97.4
Cc1ccc(/N=C2/NC(=O)/C(=C/c3cn(-c4ccccc4)nc3-c3ccc([N+](=O)[O-])cc3)S2)cc1 | Alpha amylase (Homo sapiens) (UniProt P0DUB6) | % | 58
Cc1ccc(/N=C2/NC(=O)/C(=C/c3cn(-c4ccccc4)nc3-c3ccc(Cl)cc3)S2)cc1 | Alpha amylase (Homo sapiens) (UniProt P0DUB6) | % | 75
COc1ccc(-c2nn(-c3ccccc3)cc2/C=C2\S/C(=N\c3ccc(C)cc3)NC2=O)cc1 | Alpha amylase (Homo sapiens) (UniProt P0DUB6) | % | 92.2
Cc1ccc(/N=C2/NC(=O)/C(=C/c3cn(-c4ccccc4)nc3-c3ccc(C)cc3)S2)cc1 | Alpha amylase (Homo sapiens) (UniProt P0DUB6) | % | 84
Cc1ccc(/N=C2/NC(=O)/C(=C/c3cn(-c4ccccc4)nc3-c3ccccc3)S2)cc1 | Alpha amylase (Homo sapiens) (UniProt P0DUB6) | % | 84.3

Values were extracted from ChEMBL document CHEMBL4261510.
